- Target Or System: human DGKζ (Homo sapiens)
- Construct: TVMV protease cleavage site (C); Hexa-His (C); made in house; host or cells: Sf9 insect cells (baculovirus, Bac-to-Bac)
- Sequence (Q13574 with tags, fused parts or gaps isoform Q13574-4): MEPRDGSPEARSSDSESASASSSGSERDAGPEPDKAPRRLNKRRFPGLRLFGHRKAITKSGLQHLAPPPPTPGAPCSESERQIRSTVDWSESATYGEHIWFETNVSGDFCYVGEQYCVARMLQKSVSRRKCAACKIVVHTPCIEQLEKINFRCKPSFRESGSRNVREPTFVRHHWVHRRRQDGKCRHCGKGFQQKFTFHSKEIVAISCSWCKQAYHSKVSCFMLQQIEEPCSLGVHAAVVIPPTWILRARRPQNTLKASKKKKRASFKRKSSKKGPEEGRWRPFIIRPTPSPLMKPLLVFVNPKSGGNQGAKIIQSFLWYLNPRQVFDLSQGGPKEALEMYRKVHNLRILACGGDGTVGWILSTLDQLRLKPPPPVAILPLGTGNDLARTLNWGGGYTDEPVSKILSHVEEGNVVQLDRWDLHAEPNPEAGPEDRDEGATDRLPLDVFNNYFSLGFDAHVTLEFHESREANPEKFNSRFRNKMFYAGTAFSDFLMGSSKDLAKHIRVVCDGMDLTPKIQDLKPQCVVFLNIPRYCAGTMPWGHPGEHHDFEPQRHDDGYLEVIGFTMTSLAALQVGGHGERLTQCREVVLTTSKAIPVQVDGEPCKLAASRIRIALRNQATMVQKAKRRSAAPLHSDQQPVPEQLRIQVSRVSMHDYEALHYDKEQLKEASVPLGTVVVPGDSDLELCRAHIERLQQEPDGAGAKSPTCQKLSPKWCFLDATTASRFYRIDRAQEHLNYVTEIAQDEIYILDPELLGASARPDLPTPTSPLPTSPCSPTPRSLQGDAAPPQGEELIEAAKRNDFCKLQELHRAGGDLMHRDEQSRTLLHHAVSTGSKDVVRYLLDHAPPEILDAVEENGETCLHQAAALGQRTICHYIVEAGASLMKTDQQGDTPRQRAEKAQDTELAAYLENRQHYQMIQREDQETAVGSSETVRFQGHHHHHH
- Procedure Text: DGKζ LIPGLO assay (extruded liposome substrate), in vitro DGK inhibition
- Assay type: biochemical
- Experimental Parameters: liposome (LIPGLO) assay; read-out: DGKz LIPGLO IC50
Property Measured: IC50 (nM)
Your answer should be a plain number; it is taken to be in nM.

Q: // fetch IC50 given entry `C[C@H]1CN(C(c2ccc(F)cc2)c2ccc(F)cc2)[C@H](CNS(C)(=O)=O)CN1c1cc(=O)n(C)c2ccc(C#N)nc12`
A: 98

Q: Input COc1ncccc1C(c1ccc(F)cc1)N1C[C@H](C)N(c2cc(=O)n(C)c3ccc(C#N)nc23)C[C@H]1C (single isomer, unassigned) [Example 210] , output reported IC50.
A: 260

Q: Output IC50 of CC(c1ccc(C#N)cc1F)N1C[C@H](C)N(c2cc(=O)n(C)c3ccc(C#N)nc23)C[C@H]1C (single isomer, unassigned) [Example 1227]
A: 110

Q: Look up and report measured IC50 for this entry: C[C@@H]1CN(c2cc(=O)n(C)c3ccc(C#N)nc23)[C@@H](C)CN1C(c1ccc(F)cc1)c1nc(C2CC2)cs1 (single isomer, unassigned) [Example 701]
A: 32

Q: Given the molecule C[C@@H]1CN(c2cc(=O)n(C)c3ccc(C#N)nc23)[C@@H](C)CN1C(c1ccc(OC(F)(F)F)cc1)c1ccc(F)cn1 (mixture of isomers) [Example 462] , write its reported IC50.
A: 1800

Q: For CC(c1ccc(P(C)(C)=O)cc1)N1C[C@H](C)N(c2cc(=O)n(C)c3ccc(C#N)nc23)C[C@H]1C (stereo partly drawn) [Example 1291] , write its IC50.
A: 96000

Q: Find the measured IC50 of CC(c1ccc(OC(F)(F)F)cc1)N1C[C@H](C)N(c2cc(=O)n(C)c3ccc(C#N)nc23)C[C@H]1C (single isomer, unassigned) [Example 435] and report it.
A: 4900

Q: Using the record for COC(=O)C1CN(c2cc(=O)n(C)c3ccc(C#N)nc23)CCN1C(c1ccc(F)cc1)c1ccc(F)cc1OC (single isomer, unassigned) [Example 70] , state its measured IC50.
A: 19000

Q: State, in one line, measured IC50 of `CC(C)Oc1ccccc1CN1C[C@H](C)N(c2cc(=O)n(C)c3ccc(C#N)nc23)C[C@H]1C`
A: 4700

Q: Output measured IC50 for this item: CC[C@@H]1CN(c2cc(=O)n(C)c3ccc(C#N)nc23)[C@@H](C)CN1C(c1ccc(Cl)cc1)c1ccc(F)cn1 (stereo partly drawn) [Example 1110]
A: 160

Q: Given CC[C@H]1CN(C(c2cccc(F)c2)c2ccc(OC)cn2)[C@H](CC)CN1c1cc(=O)n(C)c2ccc(C#N)nc12 (stereo partly drawn) [Example 1047] , respond with its IC50.
A: 270

====

For each record, write down the corresponding log10 of IC50.
- Target Or System: human DGKζ (Homo sapiens)
- Construct: TVMV protease cleavage site (C); Hexa-His (C); made in house; host or cells: Sf9 insect cells (baculovirus, Bac-to-Bac)
- Procedure Text: DGKζ LIPGLO assay (extruded liposome substrate), in vitro DGK inhibition
- Format: biochemical
- Experimental Parameters: liposome (LIPGLO) assay; read-out: DGKz LIPGLO IC50
The figures below represent log10 of IC50, where IC50 is stated in µM.

Q: Consider the molecule Cc1nc2ccc(C(C)N3C[C@H](C)N(c4cc(=O)n(C)c5ccc(C#N)nc45)C[C@H]3C)cc2s1 (single isomer, unassigned) [Example 1263] . State its measured log10 of IC50.
A: -0.82

Q: Answer with reported log10 of IC50 of Cn1c(=O)cc(N2CCN(C(c3ccc(F)cc3)c3ccc(F)cc3)C(C#N)C2)c2nc(C#N)ccc21 (single isomer, unassigned) [Example 44]
A: 0.74

Q: Output measured log10 of IC50 for this item: C[C@@H]1CN(c2cc(=O)n(C)c3ccc(C#N)nc23)[C@@H](C)CN1Cc1cccc(F)c1 [Example 292]
A: 0.48

Q: Dear colleague, please send me the reported log10 of IC50 for COC(=O)C1CN(C(c2ccc(F)cc2)c2ccc(F)cc2)CCN1c1c(C#N)c(=O)n(C)c2ccc(C#N)nc12 (single isomer, unassigned) [Example 117] when you can.
A: 0.86

Q: Supply measured log10 of IC50 of C[C@@H]1CN(c2c(C#N)c(=O)n(C)c3ccc(C#N)nc23)CCN1C(c1ccc(Cl)cc1)c1ccncn1 (single isomer, unassigned) [Example 319] in your reply.
A: 0.82

Q: Given Cc1cccc(C(c2ccc(Cl)cc2)N2C[C@H](C)N(c3cc(=O)n(C)c4ccc(C#N)nc34)C[C@H]2C)n1 (single isomer, unassigned) [Example 443] , respond with its log10 of IC50.
A: -0.96

====

Could you please report measured log10(IC50) for the items listed next?
- Target Or System: human DGKζ (Homo sapiens)
- Construct: TVMV protease cleavage site (C); Hexa-His (C); made in house; host or cells: Sf9 insect cells (baculovirus, Bac-to-Bac)
- Procedure Text: DGKζ LIPGLO assay (extruded liposome substrate), in vitro DGK inhibition
- Type: biochemical
- Experimental Parameters: liposome (LIPGLO) assay; read-out: DGKz LIPGLO IC50
Values reflect log10 of reported IC50 (µM).

Q: In one line, give reported log10(IC50) of the entry COCCOc1cc(C(C)N2C[C@H](C)N(c3cc(=O)n(C)c4ccc(C#N)nc34)C[C@H]2C)ccc1OC (single isomer, unassigned) [Example 1303] .
A: 0.46

Q: Hello, please tell me recorded log10(IC50) for this one: Cn1c(=O)c(C#N)c(N2CCN(C(c3ccc(F)cc3)c3ccc(F)cc3)CC2CO)c2nc(Br)ccc21 (stereo not drawn) [Example 118]
A: 1.80

Q: Tell me log10(IC50) reported for COC(CN1C[C@H](C)N(c2cc(=O)n(C)c3ccc(C#N)nc23)C[C@H]1C)c1ccc(F)cc1 (stereo partly drawn) [Example 561]
A: 1.00

Q: Please list log10(IC50) recorded for the compound C[C@@H]1CN(c2cc(=O)n(C)c3ccc(C#N)nc23)[C@@H](C)CN1C(c1ccc(F)cc1)c1nc(C2CN(C)C2)no1 (single isomer, unassigned) [Example 1298]
A: 0.43

Q: Give the reported value of log10(IC50) for this record: Cn1c(=O)c(C#N)c(N2CCN(C(c3ccc(F)cc3)c3ccc(F)cc3)C(C(=O)O)C2)c2nc(C#N)ccc21 (single isomer, unassigned) [Example 54]
A: 2.08

Q: Item C[C@@H]1CN(c2c(C#N)c(=O)n(C)c3ccc(C#N)nc23)CCN1C(c1ccc(F)cc1)c1nccs1 (single isomer, unassigned) [Example 1025] : provide log10(IC50)
A: 1.28

====

- Target Or System: human DGKα (Homo sapiens, UniProt P23743)
- Construct: TVMV protease cleavage site (C); Hexa-His (C); made in house; host or cells: Sf9 insect cells (baculovirus, Bac-to-Bac)
- Sequence (P23743 with tags, fused parts or gaps): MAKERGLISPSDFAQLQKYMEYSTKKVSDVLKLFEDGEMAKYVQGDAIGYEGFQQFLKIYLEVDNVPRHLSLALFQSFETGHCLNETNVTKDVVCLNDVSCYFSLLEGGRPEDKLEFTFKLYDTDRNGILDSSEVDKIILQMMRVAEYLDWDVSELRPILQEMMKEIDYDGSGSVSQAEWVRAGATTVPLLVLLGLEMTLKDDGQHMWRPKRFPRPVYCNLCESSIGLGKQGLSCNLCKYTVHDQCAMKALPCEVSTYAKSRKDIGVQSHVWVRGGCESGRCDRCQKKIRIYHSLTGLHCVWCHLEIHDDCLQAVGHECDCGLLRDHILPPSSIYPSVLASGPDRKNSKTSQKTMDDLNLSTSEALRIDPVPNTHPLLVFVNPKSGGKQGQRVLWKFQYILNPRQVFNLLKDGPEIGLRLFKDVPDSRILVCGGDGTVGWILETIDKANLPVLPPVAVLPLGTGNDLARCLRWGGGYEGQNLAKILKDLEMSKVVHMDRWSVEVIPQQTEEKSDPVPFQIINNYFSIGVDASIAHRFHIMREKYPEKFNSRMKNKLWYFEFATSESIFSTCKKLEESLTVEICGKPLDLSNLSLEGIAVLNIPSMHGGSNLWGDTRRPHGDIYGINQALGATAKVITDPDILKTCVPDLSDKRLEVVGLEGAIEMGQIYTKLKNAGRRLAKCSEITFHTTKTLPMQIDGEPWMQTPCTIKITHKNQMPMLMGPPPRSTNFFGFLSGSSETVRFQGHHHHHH
- Procedure Text: DGKα LIPGLO assay (extruded liposome substrate), in vitro DGK inhibition
- Type: biochemical
- Experimental Parameters: liposome (LIPGLO) assay; read-out: DGKa LIPGLO IC50
Binned IC50; ranges: one (below 0.2 µM), two (0.2 µM to below 3 µM), three (3 µM or more)

Q: Consider COCC(F)(F)C(c1ccc(F)cc1)N1C[C@H](C)N(c2cc(=O)n(C)c3ccc(C#N)nc23)C[C@H]1C (single isomer, unassigned) [Example 1313] . To which IC50 class does it belong?
A: two

Q: Returns: class label. Input: `C[C@@H]1CN(c2c(C#N)c(=O)n(C)c3ccc(C#N)nc23)[C@@H](C)CN1C(c1ccc(F)cc1)c1ccc(F)cc1`
A: two

Q: Assign a bin to Cc1cc(C(C)N2C[C@H](C)N(c3cc(=O)n(C)c4ccc(C#N)nc34)C[C@H]2C)no1 (single isomer, unassigned) [Example 648]
A: two

Q: Lab note: sort `C[C@@H]1CN(c2cc(=O)n(C)c3ccc(C#N)nc23)[C@@H](C)CN1Cc1ccc(OC(F)F)cc1` into the matching IC50 band.
A: one

Q: // return the class label for CC(c1cccc(OC(F)(F)F)c1F)N1C[C@H](C)N(c2cc(=O)n(C)c3ccc(C#N)nc23)C[C@H]1C (single isomer, unassigned) [Example 1208]
A: two

Q: Exam item: assign Cn1c(=O)cc(N2CCN(C(c3ccc(F)cc3)c3ccc(F)cc3)C(C(C)(C)F)C2)c2nc(C#N)ccc21 (single isomer, unassigned) [Example 80] to the correct category.
A: two

Q: Which class does CC[C@H]1CN(C(C)c2cc(F)cc(OC(F)(F)F)c2)[C@H](C)CN1c1cc(=O)n(C)c2ccc(C#N)nc12 (stereo partly drawn) [Example 1384] fall in?
A: three

Q: Bin? `C[C@@H]1CN(c2cc(=O)n(C)c3ccc(C#N)nc23)[C@@H](C)CN1Cc1c(Cl)cccc1Cl`
A: three

Q: Please classify: C[C@@H]1CN(c2cc(=O)n(C)c3ccc(C#N)nc23)[C@@H](C)CN1C(c1ccc(F)cc1)C(C)(C)O (single isomer, unassigned) [Example 1309]
A: three

Q: Form field 'band' for `CC[C@@H]1CN(c2cc(=O)n(C)c3ccc(C#N)nc23)[C@@H](C)CN1Cc1ccccc1`
A: one

Q: Form: Item = Cc1cccc(C(c2ccc(F)cc2)N2C[C@H](C)N(c3cc(=O)n(C)c4ccc(C#N)nc34)C[C@H]2C)n1 (single isomer, unassigned) [Example 203] ; Class = ?
A: one

Q: Looking at CC(c1ccc(OC(F)(F)F)c(F)c1)N1C[C@H](C)N(c2cc(=O)n(C)c3ccc(C#N)nc23)C[C@H]1C (single isomer, unassigned) [Example 1269] , which class would you pick?
A: one

# credit: patent US10669272B2
